Provenance of the data: patent US20150018294A1

molecular target: TLK1B (Homo sapiens, UniProt Q9UKI8); test: TLK1B kinase assay (auto kinase assay with γ 32P ATP; recombinant TLK1B with Rad9 peptide); format: biochemical; details: inactive defined at concentrations <10 μM
Sequence (Q9UKI8 218-766): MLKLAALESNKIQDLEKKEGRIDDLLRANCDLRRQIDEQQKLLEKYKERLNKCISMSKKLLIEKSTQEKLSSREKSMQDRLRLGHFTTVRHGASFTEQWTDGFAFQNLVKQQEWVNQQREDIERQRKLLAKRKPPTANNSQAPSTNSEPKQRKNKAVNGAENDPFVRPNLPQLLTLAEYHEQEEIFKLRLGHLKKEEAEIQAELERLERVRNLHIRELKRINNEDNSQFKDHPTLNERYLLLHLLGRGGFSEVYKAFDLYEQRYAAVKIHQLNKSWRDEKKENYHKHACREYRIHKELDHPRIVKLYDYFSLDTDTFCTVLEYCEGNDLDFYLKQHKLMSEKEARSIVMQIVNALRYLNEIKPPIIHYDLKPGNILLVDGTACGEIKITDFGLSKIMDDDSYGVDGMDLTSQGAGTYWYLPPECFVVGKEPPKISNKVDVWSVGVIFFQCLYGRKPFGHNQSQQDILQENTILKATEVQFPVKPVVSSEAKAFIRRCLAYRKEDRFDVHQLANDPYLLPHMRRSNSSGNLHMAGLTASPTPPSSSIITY

| substance.smiles | target.entity | activity on TLK (TLK kinase assays) |
| --- | --- | --- |
| CN(C)c1ccc2nc3ccc(=[N+](C)C)cc-3sc2c1 | TLK1B (Homo sapiens, UniProt Q9UKI8) | highly inhibitory |
| c1ccc2c(c1)Nc1ccccc1S2 | TLK1B (Homo sapiens, UniProt Q9UKI8) | highly inhibitory |
